Test system: LOX IMVI
assay.explanation: NCI tumour cell line growth inhibition, 48 h
Calls of active or inactive are those of the source. Cut-off read from the data, not from the text of the source: active = GI50 up to about 1.1 µM and inactive = higher.
endpoint.label: GI50

Check out these entries, answers already filled in.
- compound: "O=c1[nH]c2nc3ccccc3c(=O)n2nc1Cc1ccccc1"
  GI50: "> 100 µM (inactive)"
- compound: "CC(NC(=O)/C(=C/c1ccccc1O)NC(=O)c1ccccc1)C(=O)O (stereo not given)"
  GI50: "33.2 µM (inactive)"
- compound: "O=C(NCc1ccccc1)C1C(=O)C(=O)N(Cc2ccccc2)C1=O (stereo not given)"
  GI50: "> 100 µM (inactive)"
- compound: "N#Cc1c(-c2ccc(Cl)cc2)cc(-c2ccc(Nc3ccnc4cc(C(F)(F)F)ccc34)cc2)nc1N"
  GI50: "3.72 µM (inactive)"

API: the following record is the query input.
Name the reported GI50 value associated with the compound `CC(C)(C)NC1=NC(C(F)(F)F)(C(F)(F)F)NC(=O)N1`
53 µM (inactive)

---

Test system: NCI-H460
assay.explanation: NCI tumour cell line growth inhibition, 48 h
The source made the active and inactive calls. Rule as the data show it: active = GI50 up to about 1.1 µM and inactive = higher.
endpoint.label: GI50

Check out these entries, answers already filled in.
- compound: "Cc1cn([C@H]2C[C@@H](N3C(=O)c4ccccc4C3=O)[C@@H](CO[Si](C)(C)C(C)(C)C)O2)c(=O)[nH]c1=O"
  GI50: "> 100 µM (inactive)"
- compound: "OC1(c2ccc(Cl)cc2)c2ccc(CN3CCCC3)cc2C2=NCCN21 (stereo not drawn)"
  GI50: "14.6 µM (inactive)"

API: the following record is the query input.
Name the reported GI50 value associated with the compound COc1ccc(C2C(Cl)C(=O)N2n2cnc3ccccc3c2=O)cc1 (stereo not drawn)
70.5 µM (inactive)

---

Test system: OVCAR-8
assay.explanation: NCI tumour cell line growth inhibition, 48 h
Active and inactive are the calls of the source. Rule as the data show it: active = GI50 up to about 1.1 µM and inactive = higher.
endpoint.label: GI50

Check out these entries, answers already filled in.
- compound: "O=C(O)CSCC(=O)c1ccccc1"
  GI50: "> 100 µM (inactive)"
- compound: "CC(C)(C)C(=O)CC1(O)C=C(O)C(O)(CC(=O)C(C)(C)C)O1 (centres undefined)"
  GI50: "23.6 µM (inactive)"
- compound: "COc1ccccc1NCc1cccc2c(=O)c3ccc(Cl)cc3oc12"
  GI50: "> 100 µM (inactive)"

API: the following record is the query input.
Name the reported GI50 value associated with the compound `CC1(C)CC(=O)C(C(c2cccc(O)c2O)C2C(=O)CC(C)(C)CC2=O)C(=O)C1`
81.7 µM (inactive)

---

Tested on: NCI-H226
assay.explanation: NCI tumour cell line growth inhibition, 48 h
Activity calls are given as the source filed them. Cut-off read from the data, not from the text of the source: active = GI50 up to about 1.1 µM and inactive = higher.
Write down the outcome that applies. Available outcomes: true = active, false = inactive

Observe how each entry below is paired with its result.
- compound: "N#Cc1c(-c2ccc(Cl)cc2)cc(-c2ccc(Nc3ccnc4cc(C(F)(F)F)ccc34)cc2)nc1N"
  target.entity: "NCI-H226"
  category.label: "false"
- compound: "O=C(CC1Sc2ccccc2NC1=O)Nc1cc(Cl)ccc1Cl (stereo unspecified)"
  target.entity: "NCI-H226"
  category.label: "false"
- compound: "COc1ccc(-n2c(=O)n(C)c(=O)n2-c2ccc(OC)cc2)cc1"
  target.entity: "NCI-H226"
  category.label: "false"
- compound: "CCOc1ccc(N/C(=C(/C(Cl)=C(/Cl)N(CC)CC)[N+](=O)[O-])n2nnc3ccccc32)cc1"
  target.entity: "NCI-H226"
  category.label: "false"
- compound: "CN(C)CCNC(=O)c1ccc(NCCCN(C)CCCNc2ccc(C(=O)NCCN(C)C)c3nc4ccc([N+](=O)[O-])cc4c(O)c23)c2c(O)c3cc([N+](=O)[O-])ccc3nc12"
  target.entity: "NCI-H226"
  category.label: "true"

Could you please tell me the result logged for `Cc1cc(C)c2c(=N)c3ccccc3n(CCCCCCn3c4ccccc4c(=N)c4c(C)cc(C)nc43)c2n1` in this assay?
false
